Target: T1, E-selectin (ES-Rg) (Homo sapiens, UniProt P16581 P16581:22-556)
T1 chain: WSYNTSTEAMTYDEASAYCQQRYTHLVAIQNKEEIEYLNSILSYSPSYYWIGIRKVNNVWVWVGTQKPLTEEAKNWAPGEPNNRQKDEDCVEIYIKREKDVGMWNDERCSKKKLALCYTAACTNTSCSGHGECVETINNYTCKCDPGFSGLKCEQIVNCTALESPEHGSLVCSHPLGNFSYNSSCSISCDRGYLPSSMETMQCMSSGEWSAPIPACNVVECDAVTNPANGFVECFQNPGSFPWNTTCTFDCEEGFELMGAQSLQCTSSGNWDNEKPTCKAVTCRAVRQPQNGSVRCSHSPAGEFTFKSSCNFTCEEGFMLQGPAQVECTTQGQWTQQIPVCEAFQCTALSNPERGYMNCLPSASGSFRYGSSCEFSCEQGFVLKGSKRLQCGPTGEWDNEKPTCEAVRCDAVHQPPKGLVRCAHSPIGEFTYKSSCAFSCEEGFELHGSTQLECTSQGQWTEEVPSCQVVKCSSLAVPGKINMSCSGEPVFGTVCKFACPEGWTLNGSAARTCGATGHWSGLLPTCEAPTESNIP
Experiment: filter; 4 C, HSMC
Conditions: tags: human IgG1 Fc fusion (provided by A. Varki); chain copies: 2; label: 32P
Recorded Metric: Kd (nM)
Output spec: scalar in nM, unitless text.

Using known records, supply Kd for F13.55 (ssRNA, 2'-NH2 all C and U) RNA: GGGAGGACGAUGCGGUGUCUCUCCUGACUUUUAUUCUUAGUUCGAGCUGUCCUGGCAGACGACUCGCCCGA 49

Using known records, supply Kd for F13.42 (ssRNA, 2'-NH2 all C and U) RNA: GGGAGGACGAUGCGGGAUGUAAAUGACAAAUGAACCUCGAAAGAUUGCACACUCCAGACGACUCGCCCGA 4400

Using known records, supply Kd for F14.53 (ssRNA, 2'-NH2 all C and U) RNA: GGGAGGACGAUGCGGUCCCAGAGUCCCGUGAUGCGAAGAAUCCAUUAGUACCAGACAGACGACUCGCCCGA 355

Using known records, supply Kd for F13.51 (ssRNA, 2'-NH2 all C and U) RNA: GGGAGGACGAUGCGGAUGUAAAUCUAGGCAGAAACGUAGGGCAUCCACCGCAACGACAGACGACUCGCCCGA 2000

Values from patent US6001988
